B1: TPR t1 (parent)
chain: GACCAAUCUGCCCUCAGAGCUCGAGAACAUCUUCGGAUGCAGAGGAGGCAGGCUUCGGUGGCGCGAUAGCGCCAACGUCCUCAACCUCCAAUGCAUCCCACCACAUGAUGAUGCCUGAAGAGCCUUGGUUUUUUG

# Variants of: B1
# testDetails: polymerase ribozyme fitness, log enrichment relative to wild type (log ratio); higher = more active; in vitro selection for triplet polymerase activity
polymerase ribozyme fitness (log ratio) values by entry
Could you keep your reply to the number by itself?

- variantString: "G60A U78C C97G"
  polymerase ribozyme fitness (log ratio): -4.55
- variantString: "G45U C114G"
  polymerase ribozyme fitness (log ratio): -3.8
- variantString: "A5U G10A A37U U55G"
  polymerase ribozyme fitness (log ratio): -0.809
- variantString: "C34G G44U C62U G77A G110C"
  polymerase ribozyme fitness (log ratio): -6.64

Please report the recorded polymerase ribozyme fitness (log ratio) for G25U C72U . -6.27

Okay, and A18C U92C C97U ? -4.36

Same again, this time with U9C C11U U78C C82G A83U -0.241

Then what about the variant A2U C56A ? -2.33

Also C80U G117A U133G , if possible. -1.17

Request: C15A A24G -5.73

Next up: C12A C72A C99A G120U G128U -7.62

Same question, G63U A83U C101G this time -2.97

Now give it for C11U A26U C49G C73U too. -3.93

What do you get for C28U C56A ? -1.65

What do you have for C8G U78C A105C ? -2.32

And for C12U C13U C70U G71C U96A U112G U131C ? -4

Again, but for G23A G120C -2.89

Quick one: C64U A66U C72U C97A C123G -4.97

Likewise for G17A C56A ? -2.66

For C11A G42C C72A then? -1.79

What about this variant? C53U U78C C124G 1.86

Another: A5C A24G A27G -4.69

Repeat for the following variant: C97A A111G -5.96

Now give it for G17A G42U U129A too. -4.5
